Hello, the source for this data is patent US6608086B2, in case you need it.

- STUDY_TARGET: α1C Human Adrenergic Receptor (Homo sapiens)
- Construct: The entire coding region of α1C (1401 bp); expressed in transfected cells
- Sequence (P35348 whole entry): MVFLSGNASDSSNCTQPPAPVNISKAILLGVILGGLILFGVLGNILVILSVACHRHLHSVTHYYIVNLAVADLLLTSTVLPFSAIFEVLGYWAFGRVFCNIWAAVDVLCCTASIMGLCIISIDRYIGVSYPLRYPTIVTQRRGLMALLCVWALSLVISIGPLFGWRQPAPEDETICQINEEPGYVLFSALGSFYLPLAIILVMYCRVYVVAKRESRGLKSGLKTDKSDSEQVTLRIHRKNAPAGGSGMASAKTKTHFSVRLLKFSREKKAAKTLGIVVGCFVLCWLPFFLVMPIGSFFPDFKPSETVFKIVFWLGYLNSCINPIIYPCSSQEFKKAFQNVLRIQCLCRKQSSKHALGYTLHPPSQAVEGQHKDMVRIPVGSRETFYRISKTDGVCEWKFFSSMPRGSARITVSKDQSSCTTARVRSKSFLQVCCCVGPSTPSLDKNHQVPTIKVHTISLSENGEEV
- METHOD_NOTES: Radioligand binding, [3H]prazosin, cloned human α1C adrenergic receptor
- TEST_CONDITIONS: cloned human receptor, LM(tk-) cell membranes, mean, read-out: PKi alpha-1 1c (converted)
Binarize Ki at 3 nM; below is TRUE, at or above is FALSE.

// query Given CCOC(=O)C1(c2ccccc2)CCN(CCCNC(=O)C2=C(COCCN=[N+]=[N-])NC(CC)=C(C(=O)O)C2c2ccc([N+](=O)[O-])cc2)CC1 (stereo not drawn) [Example 189] , is recorded Ki strictly lower than 3 nM?
// result FALSE

// query Given CCC1=C(C(=O)NC)C(c2ccc([N+](=O)[O-])cc2)C(C(=O)NCCCN2CCC(C(=O)OC)(c3ccccc3)CC2)=C(COCCN)N1 (stereo not drawn) [Example 229] , is recorded Ki strictly lower than 3 nM?
// result FALSE

// query Given CCNC(=O)C1=C(CC)NC(COCCN)=C(C(=O)NCCCN2CCC(C(=O)OC)(c3ccccc3)CC2)C1c1ccc([N+](=O)[O-])cc1 (stereo not drawn) [Example 233] , is recorded Ki strictly lower than 3 nM?
// result TRUE

// query Given CC1=C(C(N)=O)C(c2ccc([N+](=O)[O-])cc2)C(C(=O)NCCCN2CCC(c3ccccc3)(c3ccccc3)CC2)=C(COCCN)N1 (stereo not drawn) [Example 217] , is recorded Ki strictly lower than 3 nM?
// result TRUE

// query Given CCNC(=O)C1=C(CC)NC(CC)=C(C(=O)NCCCN2CCC(C(=O)OCC)(c3ccccc3)CC2)C1c1ccc([N+](=O)[O-])cc1 (stereo not drawn) [Example 182] , is recorded Ki strictly lower than 3 nM?
// result TRUE
